Source listed as ChEMBL document CHEMBL1136143.

Listed next: entries and their corresponding MIC.
# System: Staphylococcus aureus
# protocol.details: In vitro minimum inhibitory concentration against glycopeptide tntermediate Staphylococcus aureus (GC 3051)
# Type: functional
parameter.measured: MIC (µg/mL)

item_smiles=CCN1CCN(C(=O)N[C@@H](C(=O)N[C@@H]2C(=O)N3[C@@H]2SC(C)(C)[C@@H]3C(=O)O)c2ccccc2)C(=O)C1=O assay_value=64
item_smiles=C[C@@H](c1ccccc1)[C@@H]1NC(=O)CNC(=O)[C@H](CO)NC(=O)[C@@H]([C@@H](O)[C@@H]2CN=C(N)N2[C@H]2O[C@H](CO)[C@@H](O)[C@H](O)[C@@H]2O)NC(=O)[C@H]([C@H](O)[C@@H]2CN=C(N)N2)NC(=O)[C@@H](Cc2ccc3nc(SCC(=O)c4ccc(Cl)cc4)oc3c2)NC1=O assay_value=4
item_smiles=C[C@@H](c1ccccc1)[C@@H]1NC(=O)CNC(=O)[C@H](CO)NC(=O)[C@@H]([C@@H](O)[C@@H]2CN=C(N)N2[C@H]2O[C@H](CO)[C@@H](O)[C@H](O)[C@@H]2O)NC(=O)[C@H]([C@H](O)[C@@H]2CN=C(N)N2)NC(=O)[C@@H](Cc2ccc3nc(-c4ccc(N(C)C)cc4)oc3c2)NC1=O assay_value=8

----------
# System: Staphylococcus haemolyticus
# protocol.details: In vitro minimum inhibitory concentration against methicillin-susceptible Coagulase-negative Staphylococci (MSCNS) (GC 6257)
# Type: functional
parameter.measured: MIC

item_smiles=Cc1ccc(Oc2ccc(-c3nc4ccc(C[C@H]5NC(=O)[C@H]([C@@H](C)c6ccccc6)NC(=O)CNC(=O)[C@H](CO)NC(=O)[C@@H]([C@@H](O)[C@@H]6CN=C(N)N6[C@H]6O[C@H](CO)[C@@H](O)[C@H](O)[C@@H]6O)NC(=O)[C@H]([C@H](O)[C@@H]6CN=C(N)N6)NC5=O)cc4o3)cc2)cc1 assay_value="2 µg/mL"
item_smiles=C[C@@H](c1ccccc1)[C@@H]1NC(=O)CNC(=O)[C@H](CO)NC(=O)[C@@H]([C@@H](O)[C@@H]2CN=C(N)N2[C@H]2O[C@H](CO)[C@@H](O)[C@H](O)[C@@H]2O)NC(=O)[C@H]([C@H](O)[C@@H]2CN=C(N)N2)NC(=O)[C@@H](Cc2ccc3nc(SCC(=O)c4ccc(Cl)cc4)oc3c2)NC1=O assay_value="1 µg/mL"

----------
# Test system: Staphylococcus aureus
# protocol.details: In vitro minimum inhibitory concentration against glycopeptide tntermediate Staphylococcus aureus (GC 3051)
# Format: functional
parameter.measured: MIC (µg/mL)

item_smiles=Cc1ccc(Oc2ccc(-c3nc4ccc(C[C@H]5NC(=O)[C@H]([C@@H](C)c6ccccc6)NC(=O)CNC(=O)[C@H](CO)NC(=O)[C@@H]([C@@H](O)[C@@H]6CN=C(N)N6[C@H]6O[C@H](CO)[C@@H](O)[C@H](O)[C@@H]6O)NC(=O)[C@H]([C@H](O)[C@@H]6CN=C(N)N6)NC5=O)cc4o3)cc2)cc1 parameter_measured=MIC assay_value=4
item_smiles=C[C@@H](c1ccccc1)[C@@H]1NC(=O)CNC(=O)[C@H](CO)NC(=O)[C@@H]([C@@H](O)[C@@H]2CN=C(N)N2[C@H]2O[C@H](CO)[C@@H](O)[C@H](O)[C@@H]2O)NC(=O)[C@H]([C@H](O)[C@@H]2CN=C(N)N2)NC(=O)[C@@H](Cc2ccc3nc(-c4cccc(F)c4)oc3c2)NC1=O parameter_measured=MIC assay_value=16
